test: Human HepG2 cell viability assay in 384 well format; format: toxicity, cell-based; design: dose 125 nL, time 70.5 hour; concentration not given beside the values; conditions: HepG2 cells, read-out: Inhibition
assay.metric: cytotoxicity at 70.5 h (%)

molecule	measured.value
NCc1ccnc(Oc2ccccc2)c1	-8.2
c1ncn(CC2CCCN(CC3CCCCC3)C2)n1 (configuration not stated)	-7.32
O=C(c1cccn1Cc1cccs1)N1CCSCC1	25
COc1ccc(CN2CC(O)CN(C(=O)C3CCC3)CC2=O)cc1 (configuration not stated)	-0.603
Cc1ccc(OC2(C(=O)O)CCN(C(=O)c3ccoc3C)CC2)cn1	-0.44
COCC1CCCN(c2cncc(OCc3ccccc3)n2)C1 (configuration not stated)	6.39
O=C1N[C@H]2OCCC[C@H]2[C@H](c2ccccc2C(=O)O)N1	13.9

---

Measured cytotoxicity at 70.5 h of individual entries
assay: Human HepG2 cell viability assay in 384 well format; assay type: toxicity, cell-based; set-up: dose 125 nL, time 70.5 hour; concentration not given beside the values; settings: HepG2 cells, read-out: Inhibition

compound	units	cytotoxicity at 70.5 h
CNC(=O)C1CCC2(CCN(c3ncc(C)cn3)CC2)CO1 (centres undefined)	%	4.35
Cn1cc(NC(=O)CNC(=O)N2CCN(c3ccccc3)CC2)cn1	%	-8.66
CC(C)Cc1nc(OCC(N)=O)c(C#N)c2c1CCC2	%	14.5
CCc1cccc(N2CCC(NC(=O)c3cc[nH]n3)CC2)c1	%	31.2
Cn1nnn(-c2ccc(NS(=O)(=O)c3ccc(F)c(Cl)c3)cc2)c1=O	%	-2.9
CNc1nc2c(c(C(=O)N3CCCC3)n1)CN(Cc1nccn1C)CC2	%	-10.9
COc1ncc(C2(O)CCN(Cc3ccc(F)c(F)c3)CC2)c(OC)n1	%	-3.5
Cn1cnc2c(N3CCCC3)nc(C3CCN(CC4CC4)CC3)cc21	%	-0.352
Cc1cc2nc(SCC(=O)N3CCOCC3)n(CCC(C)C)c(=O)c2[nH]1	%	-0.683
CN1CCN(C2CCN(CCOc3ccc(F)cc3)CC2)C1=O	%	18.4
c1cc(-c2cnc(NC3CC3)nc2[C@@H]2CCCO2)ccn1	%	-8.62
COc1ccc(C2SCC(=O)Nc3ccsc32)cc1 (centres undefined)	%	-3.24
CCn1ccc(NS(=O)(=O)c2cccc(COC)c2)n1	%	8.56
O=C(CSCc1ccccn1)N(Cc1ccsc1)C1CC1	%	-2.85
COc1nc2c(cc1C(=O)N1C[C@H](N)C[C@H]1C(=O)NC(C)C)CCC2	%	-4.1
COc1cccc2ccn(CC(=O)NCCC(C)C)c12	%	11
CC(C)Nc1n[nH]c2nc(C3CCN(C(=O)c4ccccn4)C3)ccc12 (centres undefined)	%	8.59
CCOc1ccc(N2CCC(C(O)c3ccccc3)CC2)nn1 (centres undefined)	%	51.9
CCC(CO)N(Cc1cccnc1)C(=O)c1ccncc1F (centres undefined)	%	-9.31
N#Cc1c(Cl)nsc1NCc1ccnc(OCC(F)(F)F)c1	%	-44.2
CCN(Cc1ccncc1)Cc1cn(-c2ccccc2)nn1	%	-10.2
Cc1cnn(CC2CCCN2C(=O)c2ccccc2-n2cnnn2)c1 (centres undefined)	%	-4.97
Cc1cc(C(=O)N2CCc3ncc(CN4CCCC4)n3CC2)no1	%	-11
NCC1Cc2cc(-c3nccc(N4CCC(O)CC4)n3)cc(F)c2O1 (centres undefined)	%	6.33
